biological target: HA of Influenza H3N2 (A/Swine/St. Oedenrode/1996), on infected MDCK cells or on virus (Influenza A virus H3N2 A/Swine/St. Oedenrode/1996 (host Swine)); assay: cell-based or functional assay
measurement.name: IC50, in vitro virus neutralization on MDCK cells (µg/mL)

[
  {
    "binder": "AT10-001 (antibody, V domains shown) VH: EVQLLESGGGLVQPGGSLRLSCAASGFSFSTYAMSWVRQAPGKGLEWVSGISGSGESTYYADSVKGRFTVSRDNSKNTLYLQMNSLRAEDTAVYYCAKQGDHIAWLLRGINFDYWGQGVLVTVSS VL: EIVLTQSPGTLSLSPGERATLSCRASQSVSSSYLAWYQQKPGQAPRLLIYGASTRATGIPDRFSGRGSGTDFTLTISSLEPEDFAVYYCQNYGSPFLFTFGPGTKVDIKR",
    "result.qualifier": "=",
    "result.value": 14
  },
  {
    "binder": "AT10-003 (antibody, V domains shown) VH: QVHLVQSGAEVRKPGASVKVSCKVSGYTLNELSIHWLRQAPGRGLEWMGSFDPEDGETIYAQKFQGRVTMTGDTSTDTAYLELTSLRSEDTALYYCARGWGAVTSPFDFWGQGTLVTVSS VL: DIVMTQSPLSLPVTPGEPASISCRSSQSLLHSNGHIYFDWYLQKPGQSPQLLIYLVSKRASGVPDRFSGSGSGTDFTLKISRVEAEDVGVYYCMQALETPFTFGPGTKVHIKR",
    "result.qualifier": ">",
    "result.value": 15
  },
  {
    "binder": "AT10-004 (antibody, V domains shown) VH: QVQLVQSGAEVRKPGASVKVSCKASGYTFTRHGISWVRQAPGQGLEWMGWISAYTGDTDYAQKFQGRVTMTTDTSTNTAYMELRSLRSDDAAVYYCARLRLQGEVVVPPSQSNWFDPWGQGTLVTVSS VL: EIVLTQSPATLSLYPGERATLSCRASQSVSRYLAWYQQKPGQAPRLLIYDASNRATGIPARFSGSGSGTDFTLTISSLEPEDFAVYYCQQRSNWLKITFGQGTRLEIKG",
    "result.qualifier": "=",
    "result.value": 2.3
  }
]
